# subjectOfTest: T1, human FGF23 (human, UniProt Q9GZV9 25-251)
# T1 construct: also called recombinant human FGF-23; Fibroblast Growth Factor 23
# T1 sequence: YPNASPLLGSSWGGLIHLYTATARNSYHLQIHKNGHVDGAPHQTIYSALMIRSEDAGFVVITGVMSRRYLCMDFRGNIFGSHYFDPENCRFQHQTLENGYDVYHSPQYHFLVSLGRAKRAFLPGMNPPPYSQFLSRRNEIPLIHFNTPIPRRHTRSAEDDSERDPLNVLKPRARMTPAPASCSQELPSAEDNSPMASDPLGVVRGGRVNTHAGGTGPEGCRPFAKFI
# protocolSummary: ELISA, binding to human FGF23 (A450 against log mAb concentration)
experimentalReadout: EC50 (µg/mL)

INSERT INTO results (binder, experimentalresult) VALUES
  ('ExC50 (antibody, V domains shown, Monoclonal anti-FGF23 antibody) VH: QVQLLESGAVLARPGTSVKISCKASGYSFTNHYMHWVKQRPGQGLEWIGIINPITGSSSNAQKFQGRVTITRDTSTSTVFMELSSLRSEDTAVYYCARDLVDAFDFWGQGTLVTVSS VL: DIQLTQSPSSLSASVGDRVTITCRASQGISSALVWYQQKPGQAPRLLIYDASSLQSGIPARFSGSGSGTDFTLTISSLEPEDFAVYYCQQFNDYFTFGQGTKLEIK', 0.0204),
  ('ExA60 (antibody, V domains shown, Monoclonal anti-FGF23 antibody) VH: EVQLVQSGAEVRKPGASVKVSCKASGYSFTNHYMHWVRQAPGQGLEWMGIINPNSGSTSNAQKLQGRVTFTRDTSANTAYMELSGLIPEDTAIYYCARDIVDAFDYWGQGTLVTVSS VL: AIQMTQSPSSLSASVGDRVTITCRASQGISSALVWYQQKPGKAPKLLIYDASSLESGVPSRFSGSGSGTDFTFTISSLQPEDIATYYCQQFNDYFTFGPGTKLEIK', 0.0233),
  ('ExA35 (antibody, V domains shown, Monoclonal anti-FGF23 antibody) VH: QVQLLESGAVLARPGTSVKISCKASGYTFTNHYMHWVKQRPGQGLEWIGIINPITGSSSNAQKFQGRVTITRDTSTSTVFMELSSLRSEDTAVYYCARDIVDAFDFWGQGTLVTVSS VL: AIQLTQSPSSLSASVGDRVTITCRASQGISSALVWYQQKPGQAPRLLIYDASSLESGIPARFSGSGSGTDFTLTISSLEPEDFAVYYCQQFNDYFTFGQGTKLEIK', 0.0238),
  ('ExA43 (antibody, V domains shown, Monoclonal anti-FGF23 antibody) VH: EVQLVQSGAEVRKPGASVKVSCKASGYTFTNHYMHWVRQAPGQGLEWMGIINPISGSTSNAQKLQGRVTFTRDTSANTAYMELSGLIPEDTAIYYCAREIVDAFDFWGQGTLVTVSS VL: AIQLTQSPSSLSASVGDRVTITCRASQGISSALVWYQQKPGQAPRLLIYDASSLESGIPARFSGSGSGTDFTLTISSLEPEDFAVYYCQQFNDYFTFGQGTKLEIK', 0.0278);
